Test system: Escherichia coli
PROTOCOL: Antibacterial activity against Escherichia coli ATCC 11775 at 10 mg/disc after 48 hrs by disc-diffusion method
Assay type: functional, DSM 30083 = JCM 1649
Given measured diameter of the inhibition zone (DIZ), output Met if it is greater than or equal to 10 mm and Not met if not.

smiles=COc1cc(-c2[nH]c(=S)nc(NN)c2C#N)cc(OC)c1OC category_label=Met
smiles=Cc1cc(C)n(-c2nc(=S)[nH]c(-c3ccc(F)cc3)c2C#N)n1 category_label=Met
smiles=N#Cc1c(-c2ccc(F)cc2)[nH]c(=S)n2ncnc12 category_label="Not met"
smiles=Cc1nc2c(C#N)c(-c3ccc(Br)cc3)[nH]c(=S)n2n1 category_label="Not met"
smiles=COc1cc(-c2[nH]c(=S)n3nnnc3c2C#N)cc(OC)c1OC category_label=Met
smiles=Cc1nc2c(C#N)c(-c3ccc(F)cc3)[nH]c(=S)n2n1 category_label="Not met"
smiles=N#Cc1c(NN)nc(=S)[nH]c1-c1ccc(Br)cc1 category_label=Met
smiles=N#Cc1c(-c2ccc(Br)cc2)[nH]c(=S)n2c(=S)[nH]nc12 category_label=Met
smiles=N#Cc1c(-c2ccc(F)cc2)[nH]c(=S)n2nnnc12 category_label=Met
smiles=COc1cc(-c2[nH]c(=S)n3cnnc3c2C#N)cc(OC)c1OC category_label=Met

Is reported diameter of the inhibition zone (DIZ) greater than or equal to 10 mm here: `COc1ccc(/C=N/Nc2nc(=S)[nH]c(-c3cc(OC)c(OC)c(OC)c3)c2C#N)cc1`
Met

Param item: `COc1ccc(/C=N/Nc2nc(=S)[nH]c(-c3ccc(Br)cc3)c2C#N)cc1`
Met

Param item: `COc1cc(-c2[nH]c(=S)nc(N/N=C/c3ccc(F)cc3)c2C#N)cc(OC)c1OC`
Met

* * *

Test system: Staphylococcus aureus
PROTOCOL: Antibacterial activity against Staphylococcus aureus ATCC 12600 at 10 mg/disc after 48 hrs by disc-diffusion method
Type: functional
Active and inactive are the calls of the source. The calls are words filed in the database; no cut-off is given here.
EXPERIMENTAL_READOUT: diameter of the inhibition zone (DIZ)

smiles=COc1cc(-c2[nH]c(=S)n3cnnc3c2C#N)cc(OC)c1OC result="21 mm"
smiles=N#Cc1c(-c2ccc(F)cc2)[nH]c(=S)n2cnnc12 result="22 mm"
smiles=N#Cc1c(NN)nc(=S)[nH]c1-c1ccc(F)cc1 result="15 mm"
smiles=COc1cc(-c2[nH]c(=S)n3c(=O)[nH]nc3c2C#N)cc(OC)c1OC result="10 mm"
smiles=COc1cc(-c2[nH]c(=S)n3ncnc3c2C#N)cc(OC)c1OC result="7 mm"
smiles=COc1cc(-c2[nH]c(=S)nc(N/N=C/c3ccc(F)cc3)c2C#N)cc(OC)c1OC result="19 mm"

For each of the molecules below, state diameter of the inhibition zone (DIZ).
1. Cc1cc(C)n(-c2nc(=S)[nH]c(-c3ccc(F)cc3)c2C#N)n1
2. Cc1nnc2c(C#N)c(-c3ccc(F)cc3)[nH]c(=S)n12
3. Cc1nc2c(C#N)c(-c3ccc(F)cc3)[nH]c(=S)n2n1
4. COc1cc(-c2[nH]c(=S)n3c(=S)[nH]nc3c2C#N)cc(OC)c1OC
5. COc1cc(-c2[nH]c(=S)n3c(C)nnc3c2C#N)cc(OC)c1OC

1: 13 mm; 2: inactive; 3: 7 mm; 4: inactive; 5: inactive
